Assay: Chemical stability in simulated intestinal fluid (SIF)
Assay type: physicochemical
Conditions: SIF without enzymes, pH 6.5; 10 μm; 2 hours at 37° C.; substance amount remaining
outcome.measure: Stability in SIF, %
Don't forget the unit after the value.

# count of solved cases: 5
C=CC(=O)Nc1cc(Nc2nccc(C(=O)c3ccc(N(CC)CC)cc3)n2)c(OC)cc1N(C)CCN(C)C	91.5%
C=CC(=O)Nc1cc(Nc2cc(C(=O)c3ccc(N4CCN(C)CC4)cc3)ccn2)c(OC)cc1N(C)CCN(C)C	97.2%
C=CC(=O)Nc1cc(Nc2cc(C(=O)c3ccc(N4CCCC4)cc3)ccn2)c(OC)cc1N(C)CCN(C)C	96.4%
C=CC(=O)Nc1cc(Nc2nccc(C(=O)c3ccc(OC(C)C)cc3)n2)c(OC)cc1N(C)CCN(C)C	97.2%
C=CC(=O)Nc1cc(Nc2cc(C(=O)c3ccccc3)ccn2)c(OC)cc1N(C)CCN(C)C	100.0%

// query What value of Stability in SIF, % has been recorded for this entry: C=CC(=O)Nc1cc(Nc2nccc(C(=O)c3ccc(C)cc3)n2)c(OC)cc1N(C)CCN(C)C
// result 100.0%

// query Param item: C=CC(=O)Nc1cc(Nc2cc(C(=O)c3ccc(C)cc3)ccn2)c(OC)cc1N(C)CCN(C)C
// result 96.6%

---

Experiment: General cytotoxicity on HepG2 cells
Assay type: cell-based
Details: human; general cytotoxicity, HepG2 cells, 72 hours, average of several tests
outcome.measure: CC50 at 72 h (µM)
Value expressed in µM; do not type the unit.

# count of solved cases: 6
C=CC(=O)Nc1cc(Nc2nccc(C(=O)c3ccc(NCCOC)cc3)n2)c(OC)cc1N(C)CCN(C)C [EGFR_3365_105]	45.6
C=CC(=O)Nc1cc(Nc2cc(C(=O)c3ccccc3)ccn2)c(OC)cc1N(C)CCN(C)C [EGFR_3365_3]	15.2
C=CC(=O)Nc1cc(Nc2cc(C(=O)c3ccc(N4CCN(C)CC4)cc3)ccn2)c(OC)cc1N(C)CCN(C)C [EGFR_3365_55]	13.3
C=CC(=O)Nc1cc(Nc2nccc(C(=O)c3ccc(N4CCC[C@@H](OC)C4)cc3)n2)c(OC)cc1N(C)CCN(C)C [EGFR_3365_111]	27.1
C=CC(=O)Nc1cc(Nc2cc(C(=O)c3ccc(OCC(C)C)cc3)ccn2)c(OC)cc1N(C)CCN(C)C [EGFR_3365_77]	8.34
C=CC(=O)Nc1cc(Nc2nccc(C(=O)c3ccc(OC)cc3)n2)c(OC)cc1N(C)CCN(C)C [EGFR_3365_28]	31.4

Now look at this one.
// query What value of CC50 at 72 h has been recorded for this entry: C=CC(=O)Nc1cc(Nc2nccc(C(=O)c3ccc(OC)cc3OCCC)n2)c(OC)cc1N(C)CCN(C)C [EGFR_3365_102]
// result 27.5

---

Listing: SI, IC50(WT)/IC50(DM) of selected compounds
Target: DM EGFR (DoubleMutantEGFR, L828R/T790M) (Homo sapiens, UniProt P00533, L858R/T790M)
Construct: purchased SignalChem
Experiment: Inhibition of DM EGFR kinase activity (ADP-Glo)
Type: biochemical
Conditions: selectivity index, kinase EGFR WT vs EGFR DM
Answer with the value's number alone.

# count of solved cases: 4
C=CC(=O)Nc1cc(Nc2nccc(C(=O)c3ccccc3[N+](=O)[O-])n2)c(OC)cc1N(C)CCN(C)C [EGFR_3365_36]	19.05
C=CC(=O)Nc1cc(Nc2nccc(C(=O)c3ccc(N4CC[C@@H](O)C4)cc3)n2)c(OC)cc1N(C)CCN(C)C [EGFR_3365_113]	17.09
C=CC(=O)Nc1cc(Nc2nccc(C(=O)c3ccc(OC)cc3OCCC)n2)c(OC)cc1N(C)CCN(C)C [EGFR_3365_102]	18.40
C=CC(=O)Nc1cc(Nc2nccc(C(=O)c3ccc(OCC)cc3OCC)n2)c(OC)cc1N(C)CCN(C)C [EGFR_3365_68]	10.40

// query What value of SI, IC50(WT)/IC50(DM) has been recorded for this entry: C=CC(=O)Nc1cc(Nc2nccc(C(=O)c3c(OC)cc(OC)cc3OC)n2)c(OC)cc1N(C)CCN(C)C [EGFR_3365_124]
// result 21.41

// query Param item: C=CC(=O)Nc1cc(Nc2cc(C(=O)c3ccc(N(CC)CC)cc3)ccn2)c(OC)cc1N(C)CCN(C)C
// result 26.20

// query Param item: C=CC(=O)Nc1cc(Nc2nccc(C(=O)c3ccc(N4CCC[C@H](O)C4)cc3)n2)c(OC)cc1N(C)CCN(C)C [EGFR_3365_108]
// result 14.85
